src = patent US20160040149A1

Procedure Details: Saturation mutagenesis of SEQ ID NO:109: dicamba decarboxylation activity of point mutants (CO2 released), fold of backbone (Tables 7, 8, Megatable 1)
Condition Label: decarboxylation activity (CO2 released) of point mutant vs unmutated backbone protein; backbone SEQ ID NO: 109
Observed Property: Fold Activity (fold)
Write the value in fold as a bare number.

Exercise: If you can, please state the reported Fold Activity value of 133 (protein, Dicamba decarboxylase variant) MAQGKVALEEHFAIPETLQDSAGFVPGDYWKELQHRLLDIQDTRLKLMDAHGIETMILSLAAPAVQAIPDRRKAIEIARRANDFLAEECAKRPDRFLAFAALPLQDPDAATEELQRCVNDLGFVGALVNGFSQEGDGQTPLYYDLPQYRPFWGEVEKLDVPFYLHPRNPLPQDSRIYDGHPWLLGPTWAFAQETAVHALRLMASGLFDEHPRLNIILGHMGEGLPYMMYRIDHRIAWVKLPPRYPAKRRFMDYFNENFHITTSGNFRTQTLIDAILEIGADRILFSTDWPFENIDHAADWFNATSIAEADRVKIGRTNARRLFKLDGA .
Key: 1.3
